Below, each entry is listed alongside its reported apparent KD of MS2 coat protein.
Tested on: MS2 coat protein
Test: apparent KD of MS2 coat protein; designed switch direction (-1 OFF switch, 1 ON switch): -1; higher = weaker reporter binding
Details: Eterna round: R95; input ligand: microRNA oligo, concentration not stated
Give just the number in nM; leave the unit off.

Reference set (3 entries):
{"columns": ["Monomer sequence", "Units text", "apparent KD of MS2 coat protein"],
 "data": [
  ["CCUAUGUGAGGAUAUGUCUGGUCUUCUUUUAUUUUUUACAGACAGAAGGCACAUGAGGAUCACCCAUGUCAGAC [Ex4 - 3 - 48] (puzzle: Exclusion 4)", "nM", 23],
  ["CCUGUGUAAGGAUAUGACAAUGGUAUCUUCGGAUACCAUUGUCAGAAGGUACAUGAGGAUCACCCAUGUAACAC [Ex4-3: 13] (puzzle: Exclusion 4)", "nM", 14.8],
  ["UCAAGUAUGUAGGAUAUCGAUGUCCUUGGACAUCGAGAAGGACGUACAUGAGGAUCACCCAUGUAACUUGCAUG [Exclusion 6 - B - 10:e] (puzzle: Exclusion 6)", "nM", 138]
]}

INPUT: State its apparent KD of MS2 coat protein for this sequence: GAUUGACAUGAGGAUCACCCAUGUGAGGAUAUCGGCUGGACCGUGUUGGCUUCCGUCUCGAGAAGGCGCAUAGG [Exclusion 1 V43] (puzzle: Exclusion 1)
OUTPUT: 39.7

INPUT: State its apparent KD of MS2 coat protein for this sequence: GAUCCACAUGAGGAUCACCCAUGUCAGGAUAUGAUACUAUGUACUUCGGUACAUAGUAUCAGAAGGGACAGAUC [Ex1-3: 2] (puzzle: Exclusion 1)
OUTPUT: 162

---

System: MS2 coat protein
Experiment: apparent KD of MS2 coat protein; designed switch direction (-1 OFF switch, 1 ON switch): -1; higher = weaker reporter binding
Conditions: Eterna round: R95; input ligand: microRNA oligo, concentration not stated
Below, each entry is listed alongside its reported apparent KD of MS2 coat protein.

Reference set (5 entries):
{"columns": ["Monomer sequence", "Test system", "Obs value"],
 "data": [
  ["AGCGACCAAGGAUAUACAUGAGGAUCACCCAUGUCGGCGACCUUCCUGGGAUUUCUUAGUAGAAGGUGGUCAAU [Gesodieddi] (puzzle: Exclusion 3)", "MS2 coat protein", "35.2 nM"],
  ["AAACCACAUGAGGAUCACCCAUGUGAGGAUAUGAUACUAUGUACUUCGGUACAUAGUAUCAGAAGGCAUAUGAA [Ex1-3: 48] (puzzle: Exclusion 1)", "MS2 coat protein", "24.4 nM"],
  ["UACUAAAAGGAGGAUAUCGUAUCGGAAACGAUACGAGAAGGCUUAACAUGAGGAUCACCCAUGUUCUUCAAUAU [Mat - Exclusion 6 - Eli Mod - D92] (puzzle: Exclusion 6)", "MS2 coat protein", "16 nM"],
  ["ACCACCUUAGUCAGGAUAUAGCUUCUAGCAAGAUACUAGAAGGGACAUGAGGAUCACCCAUGUAAAGGUGCUAA [Ramais] (puzzle: Brourd's mod of Exclusion 4)", "MS2 coat protein", "29 nM"],
  ["AUUUAGAGAGGAUAUAUUAUGUGAAACAUGAGGAUCACCCAUGUAAUAUGAUGGAUGUAAAUAGAAGGCUCAUUUA [Mat - Exclusion 5 - JL mod - D23] (puzzle: Exclusion 5)", "MS2 coat protein", "43.5 nM"]
]}

For the next question, use this sequence.
INPUT: State its apparent KD of MS2 coat protein for this sequence: GCCAGAGCAGGAUAUUCAAUAUCACACAUGAGGAUCACCCAUGUCCGGCGAAAGCUGGAGGGAGAAGGGCUCUGGC [Fiskers Ex 5 - 14] (puzzle: Exclusion 5)
OUTPUT: 49.4 nM
